measurementDescription: Cytotoxicity against human NCI60 cells assessed as cellular growth at 10 uM after 48 hrs by SRB assay relative to untreated control
Format: functional
assayEndpoint: Activity

Please report Activity for the following compound: "COc1ccc(/C(=C2\O[C@@H]([C@H]3COC(C)(C)O3)[C@H]3OC(C)(C)O[C@@H]23)c2cc(OC)c(OC)c(OC)c2)cc1O"
66%

Please report Activity for the following compound: "COc1cc(/C(=C2\O[C@@H]([C@H](O)CO)[C@H]3OC(C)(C)O[C@@H]23)c2cccc(N)c2)cc(OC)c1OC"
103%

Please report Activity for the following compound: "COc1ccc(/C(=C2/O[C@@H]([C@H]3COC(C)(C)O3)[C@H]3OC(C)(C)O[C@@H]23)c2cc(OC)c(OC)c(OC)c2)cc1O"
57%

Please report Activity for the following compound: "COc1cc(/C(=C2\O[C@@H]([C@H]3COC(C)(C)O3)[C@H]3OC(C)(C)O[C@@H]23)c2ccc3c(c2)OCO3)cc(OC)c1OC"
61%

Please report Activity for the following compound: "COc1cc(/C(=C2\O[C@@H]([C@H]3COC(C)(C)O3)[C@H]3OC(C)(C)O[C@@H]23)c2ccc3ccccc3c2)cc(OC)c1OC"
30%

Please report Activity for the following compound: "COc1ccc(/C(=C2/O[C@@H]([C@H](O)CO)[C@H]3OC(C)(C)O[C@@H]23)c2cc(OC)c(OC)c(OC)c2)cc1O"
79%

Please report Activity for the following compound: "COc1cc(/C(=C2\O[C@@H]([C@H](O)CO)[C@H]3OC(C)(C)O[C@@H]23)c2ccc3ccccc3c2)cc(OC)c1OC"
96%

Please report Activity for the following compound: "COc1cc(/C(=C2\O[C@@H]([C@H]3COC(C)(C)O3)[C@H]3OC(C)(C)O[C@@H]23)c2cccc(N)c2)cc(OC)c1OC"
102%

Please report Activity for the following compound: "COc1cc(/C(=C2\O[C@@H]([C@H](O)CO)[C@H]3OC(C)(C)O[C@@H]23)c2ccc3c(c2)OCO3)cc(OC)c1OC"
106%

Please report Activity for the following compound: "COc1cc(C(=C2O[C@@H]([C@H](O)CO)[C@H]3OC(C)(C)O[C@@H]23)c2cc(OC)c(OC)c(OC)c2)cc(OC)c1OC"
103%

Please report Activity for the following compound: "COc1cc(C(=C2O[C@@H]([C@H]3COC(C)(C)O3)[C@H]3OC(C)(C)O[C@@H]23)c2cc(OC)c(OC)c(OC)c2)cc(OC)c1OC"
105%

###

Test system: MIA PaCa-2
measurementDescription: Cytotoxicity against human MIAPaCa2 cells at 10^-5 M after 72 hrs by MTS assay
Format: functional
testConditions: MIA PaCa-2, 72 h, read-out: GI
For each entry below, report its inhibition of growth at 10 µM value.
// units = %; emit number, no label

Give the observed inhibition of growth at 10 µM of "COc1ccc(/C(=C2\O[C@@H]([C@H](O)CO)[C@H]3OC(C)(C)O[C@@H]23)c2cc(OC)c(OC)c(OC)c2)cc1O" for MIA PaCa-2.
58

Give the observed inhibition of growth at 10 µM of "COc1cc(C(=C(CO)CO)c2ccc3ccccc3c2)cc(OC)c1OC" for MIA PaCa-2.
54

Give the observed inhibition of growth at 10 µM of "COc1ccc(C(=C(COC(C)=O)COC(C)=O)c2cc(OC)c(OC)c(OC)c2)cc1O" for MIA PaCa-2.
51

Give the observed inhibition of growth at 10 µM of "COc1cc(/C(=C2\O[C@@H]([C@H]3COC(C)(C)O3)[C@H]3OC(C)(C)O[C@@H]23)c2cccc([N+](=O)[O-])c2)cc(OC)c1OC" for MIA PaCa-2.
0

Give the observed inhibition of growth at 10 µM of "COc1ccc(/C(=C2/O[C@@H]([C@H]3COC(C)(C)O3)[C@H]3OC(C)(C)O[C@@H]23)c2cc(OC)c(OC)c(OC)c2)cc1O" for MIA PaCa-2.
30

Give the observed inhibition of growth at 10 µM of "COc1cc(C(=C(COC(C)=O)COC(C)=O)c2ccc3ccccc3c2)cc(OC)c1OC" for MIA PaCa-2.
15

Give the observed inhibition of growth at 10 µM of "COc1cc(C(=C(COC(C)=O)COC(C)=O)c2ccc3c(c2)OCO3)cc(OC)c1OC" for MIA PaCa-2.
0

Give the observed inhibition of growth at 10 µM of "COc1cc(C(=C(COC(C)=O)COC(C)=O)c2cc(OC)c(OC)c(OC)c2)cc(OC)c1OC" for MIA PaCa-2.
10

Give the observed inhibition of growth at 10 µM of "COc1cc(/C(=C2/O[C@@H]([C@H](O)CO)[C@H]3OC(C)(C)O[C@@H]23)c2cccc([N+](=O)[O-])c2)cc(OC)c1OC" for MIA PaCa-2.
0

Give the observed inhibition of growth at 10 µM of "COc1cc(C(=C(CO)CO)c2cc(OC)c(OC)c(OC)c2)cc(OC)c1OC" for MIA PaCa-2.
0

The reported numbers originate from ChEMBL document CHEMBL1828575.
